measured-target: HIV-1 X1632_S2_B10 envelope (Env) on Env.IMC.LucR virus (HIV-1 clade G)
protocol-text: cell-based or functional assay
experimental-readout: IC50 of virus neutralization (TZM-BL, luciferase)

>  <binder>
NglycoND (antibody, V domains shown) VH: ADLVQSGAVVKKPGDSVRISCEAQGYRFPDYIIHWIRRAPGQGPEWMGWMNPMGGQVNIPWKFQGRVSMTRDTSIETAFLDLRGLKSDDTAVYYCVRDRSDGSGKRFESSNWFLDLWGRGTAVTIQS VL: QSALTQPRSVSASPGQSVTISCTGTHNLVSWCQHQPGRAPKLLIYDFNKRPSGVPDRFSGSGSGGTASLTITGLQDDDDAEYFCWAYEAFGGGTKLTVL

>  <result>
> 50 µg/mL

$$$$
>  <binder>
CysCA (antibody, V domains shown) VH: ADLVQSGAVVKKPGDSVRISCEAQGYRFPDYIIHWIRRAPGQGPEWMGWMNPMGGQVNIPWKFQGRVSMTRDTSIETAFLDLRGLKSDDTAVYYCVRDRSNGSGKRFESSNWFLDLWGRGTAVTIQS VL: QSALTQPRSVSASPGQSVTISCTGTHNLVSWAQHQPGRAPKLLIYDFNKRPSGVPDRFSGSGSGGTASLTITGLQDDDDAEYFCWAYEAFGGGTKLTVL

>  <result>
> 50 µg/mL

$$$$

Attention now turns to another entry.
Problem: Find the measured IC50 of virus neutralization (TZM-BL, luciferase) of Germ12_NglycoSA_CysCV (antibody, V domains shown) VH: QVDLVQSGAVVKKPGDSVRVSCEAQGYRFPDYIIHWIRRAPGQGPEWMGWMNPMGGQVNIPWKFQGRVSMTRDTSIETAYMDLRGLRSDDTAVYYCVRDRSNGAGKRFESSNWFLDLWGRGTLVTVSS VL: QSALTQPRSVSGSPGQSVTISCTGTHNLVSWVQHQPGRAPKLLIYDFNKRPSGVPDRFSGSGSGGTASLTISGLQDEDDAEYFCWAYEAFGGGTKLTVL and report it.
Solution: > 50 µg/mL
